Data provenance is ChEMBL document CHEMBL1143325.

Target: UniProtKB P23280
Sequence (P23280 whole entry): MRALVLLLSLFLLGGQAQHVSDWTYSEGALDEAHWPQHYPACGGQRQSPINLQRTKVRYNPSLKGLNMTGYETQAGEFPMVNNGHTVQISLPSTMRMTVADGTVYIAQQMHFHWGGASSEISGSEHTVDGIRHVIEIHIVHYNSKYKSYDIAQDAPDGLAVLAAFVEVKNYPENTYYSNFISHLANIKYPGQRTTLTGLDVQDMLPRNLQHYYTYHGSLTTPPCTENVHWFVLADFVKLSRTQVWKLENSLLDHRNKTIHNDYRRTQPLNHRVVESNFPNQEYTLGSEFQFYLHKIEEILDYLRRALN
pKi: −log10 of the molar value.
READOUT: pKi

1. NS(=O)(=O)c1cc(C2(O)NC(=O)c3ccccc32)ccc1Cl (stereo unspecified) [CHLORTHALIDONE] | 5.87

====

Ki, Carbonic anhydrase 3 (Homo sapiens), per-entry values.
READOUT: Ki (µM)

1. NS(=O)(=O)c1cc(C2(O)NC(=O)c3ccccc32)ccc1Cl (stereo not drawn) | 11
2. CC1Cc2ccccc2N1NC(=O)c1ccc(Cl)c(S(N)(=O)=O)c1 (stereo not drawn) [INDAPAMIDE] | 230
3. NS(=O)(=O)c1cc(C(=O)O)c(NCc2ccco2)cc1Cl [FUROSEMIDE] | 3200
